Protocol text: Clearance in 129/SvEvBrd x C57BL/6 hybrid mouse at 1 mg/kg, iv
Assay type: ADME, organism-based
Design: dose 1 mg/kg, route intravenous
Applied conditions: in vivo
Would you mind telling me the reported clearance of each entry?
Numbers only; they are read as mL/min/kg.

GET /value?item= OC[C@@H](O)[C@@H](O)[C@H](O)c1c[nH]c(-c2cocn2)n1 &field=clearance returns 16.6

GET /value?item= OC[C@@H](O)[C@@H](O)[C@H](O)c1c[nH]c(-c2ncon2)n1 &field=clearance returns 11.3

GET /value?item= OC[C@@H](O)[C@@H](O)[C@H](O)c1c[nH]c(-c2ncc[nH]2)n1 &field=clearance returns 31.5

GET /value?item= CC(=O)c1nc([C@@H](O)[C@H](O)[C@H](O)CO)cn1C &field=clearance returns 5.7

GET /value?item= CC(=O)c1nc([C@@H](O)[C@H](O)[C@H](O)CO)c(C)[nH]1 &field=clearance returns 7
